- Test system: corn
- experiment_summary: Test C pre-/postemergence test
- Format: in vivo, Zea mays
- test_parameters: 62 g ai/ha, Preemergence; scale 0 to 100
Items are presented alongside their recorded Corn plant response rating.
No unit in the answer, please; the number alone is enough.

Illustrative cases are given below, each with its answer.
CCc1cc[n+]([O-])c([S+]([O-])Cc2c(C(F)(F)F)nn(C)c2OCC(F)(F)F)c1 (stereo not drawn) : 45
Cn1nc(OC(F)F)c(CS(=O)(=O)c2cccc[n+]2[O-])c1C(F)(F)F : 35
[O-][n+]1cc(Cl)ccc1[S+]([O-])Cc1c(C(F)(F)F)nn(CC(F)(F)F)c1Cl (stereo not drawn) : 50

### Prompt Look up Corn plant response rating for this molecule: Cn1nc(C(F)(F)F)c(C[S+]([O-])c2ccc(Cl)c[n+]2[O-])c1OCC(F)(F)F (racemic)
### Response 98

### Prompt Need Corn plant response rating, item Cn1nc(C(F)(F)F)c(CS(=O)(=O)c2ccc(Cl)c[n+]2[O-])c1OCC(F)(F)F
### Response 0
